system: A549-GM130-SQSTM1; assay: lowest phenotypically active concentration; higher = less potent; settings: treatment time: 24 h
MEASURED PROPERTY: lowest phenotypically active concentration

These recorded examples may help you get a feel for the data.
{"MOLECULE": "CC[C@H](CO)Nc1nc(NCc2ccc(-c3ccccn3)cc2)c2ncn(C(C)C)c2n1", "RESULT": "≤ 0.3 µM"}
{"MOLECULE": "CN1C(=O)/C(=C2/Nc3ccccc3/C2=N/O)c2ccc(Br)cc21", "RESULT": "≤ 0.3 µM"}
{"MOLECULE": "COc1cc([C@@H]2c3cc4c(cc3[C@@H](O[C@@H]3O[C@@H]5CO[C@@H](c6cccs6)O[C@H]5[C@H](O)[C@H]3O)[C@H]3COC(=O)[C@H]23)OCO4)cc(OC)c1O [teniposide]", "RESULT": "≤ 0.3 µM"}
{"MOLECULE": "CNC(=O)Nc1ccc(-c2nc(N3CC4CCC(C3)O4)c3cnn(C4CCC5(CC4)OCCO5)c3n2)cc1", "RESULT": "≤ 0.3 µM"}
{"MOLECULE": "CCc1ccc(/C=C/C(=O)Nc2ccc(C(C)=O)cc2)o1 [Heclin]", "RESULT": "9 µM"}

Quick one: give me lowest phenotypically active concentration for each item below, same order please.
1. C=C1CC[C@@H]2[C@](C)(CO)[C@H](O)CC[C@@]2(C)[C@@H]1C/C=C1/C(=O)OC[C@H]1O [Andrographolide]
2. COc1c(C)cnc(Cn2cnc3c(Cl)nc(N)nc32)c1C
3. COc1ccccc1C(=O)Nc1cc2c(cc1N1CCCC1)n(C)c(=O)n2C
4. COc1cc2c(cc1O)CC[C@@H]1[C@@H]2CC[C@]2(C)[C@@H](O)CC[C@@H]12 [2-methoxyestradiol]

1. 3 µM
2. ≤ 0.3 µM
3. 9 µM
4. 1 µM

For every listed record, write down its lowest phenotypically active concentration.
1. COc1cc(N2CCC(N)CC2)ccc1Nc1ncc(Cl)c(-c2c[nH]c3ccccc23)n1
2. COc1ccc(-c2cnc(-c3cccc4c3-c3ccccc3C4=O)o2)cc1
3. C=C1CC[C@H](O)C/C1=C\C=C1\CCC[C@]2(C)[C@@H]([C@H](C)/C=C/[C@H](C)C(C)C)CC[C@@H]12 [Calciferol]
4. Cc1c(CN2CCN(C(=O)[C@H](C)O)CC2)sc2c(N3CCOCC3)nc(-c3cnc(N)nc3)nc12
5. Cc1cc(F)c(Nc2ncnc3cc(OCc4ccccc4)ccc23)cc1O

≤ 0.3 µM
≤ 0.3 µM
9 µM
≤ 0.3 µM
9 µM

====

tested on: A549-GM130-SQSTM1; experiment: lowest phenotypically active concentration; higher = less potent; details: treatment time: 24 h
Counter-ions that a name gives are not always drawn.
MEASURED PROPERTY: lowest phenotypically active concentration

// solved cases for lowest phenotypically active concentration follow
{"COMPOUND": "CO[C@H]1C=CC=C(C)C(=O)NC2=CC(=O)C(NCCN(C)C)=C(C[C@@H](C)C[C@H](OC)[C@H](O)[C@@H](C)C=C(C)[C@@H]1OC(N)=O)C2=O [17-DMAG hydrochloride]", "RESULT": "≤ 0.3 µM"}
{"COMPOUND": "CC(C)(C)c1nc(-c2cccc(NS(=O)(=O)c3c(F)cccc3F)c2F)c(-c2ccnc(N)n2)s1 [dabrafenib]", "RESULT": "≤ 0.3 µM"}

# lookup: lowest phenotypically active concentration of CC1(C)O[C@@H]2C[C@H]3[C@@H]4C[C@H](F)C5=CC(=O)CC[C@]5(C)[C@H]4[C@@H](O)C[C@]3(C)[C@]2(C(=O)CO)O1 [flurandrenolide] ≤ 0.3 µM

====

system: WPMY1-TUBA1B-RELA; assay: lowest phenotypically active concentration; higher = less potent; details: treatment time: 24 h
Where a name gives a salt, the structure may show the parent alone.
MEASURED PROPERTY: lowest phenotypically active concentration

{"COMPOUND": "C/C=C1\\NC(=O)[C@H]2CSSCCC=C[C@H](CC(=O)N[C@H](C(C)C)C(=O)N2)OC(=O)[C@H](C(C)C)NC1=O", "RESULT": "≤ 0.3 µM"}
{"COMPOUND": "NCC(=O)Nc1ccc(-n2nc(C(F)(F)F)cc2-c2ccc3c(ccc4ccccc43)c2)cc1", "RESULT": "≤ 0.3 µM"}
{"COMPOUND": "CO[C@H]1C=CC=C(C)C(=O)NC2=CC(=O)C(NCCN(C)C)=C(C[C@@H](C)C[C@H](OC)[C@H](O)[C@@H](C)C=C(C)[C@@H]1OC(N)=O)C2=O [17-DMAG hydrochloride]", "RESULT": "≤ 0.3 µM"}
{"COMPOUND": "CC[C@]1(O)C[C@@H]2CN(CCc3c([nH]c4ccccc34)[C@@](C(=O)OC)(c3cc4c(cc3OC)N(C=O)[C@H]3[C@@](O)(C(=O)OC)[C@H](OC(C)=O)[C@]5(CC)C=CCN6CC[C@]43[C@@H]65)C2)C1", "RESULT": "≤ 0.3 µM"}
{"COMPOUND": "CNC(=O)Nc1ccc(-c2nc(N3CC4CCC(C3)O4)c3cnn(C4CCC5(CC4)OCCO5)c3n2)cc1", "RESULT": "≤ 0.3 µM"}

Hello, I would appreciate it if you could give lowest phenotypically active concentration for each entry below.
1. NC(=O)Nc1cc(-c2cccc(F)c2)sc1C(=O)N[C@H]1CCCNC1 [AZD 7762 hydrochloride]
2. COCc1c(C(C)C)nc(C(C)C)c(/C=C/[C@@H](O)C[C@@H](O)CC(=O)O)c1-c1ccc(F)cc1

1. ≤ 0.3 µM
2. ≤ 0.3 µM

Provide lowest phenotypically active concentration values for the following items, in order.
1. O=c1c(-c2ccc(O)cc2)coc2cc(O)cc(O)c12
2. O=c1cc(-c2ccc(O)cc2)oc2cc(O)cc(O)c12
3. CS(=O)(=O)c1cccc(CNc2nc(Nc3ccc4c(c3)CCC(=O)N4)ncc2C(F)(F)F)c1

9 µM
9 µM
3 µM

Would you mind listing lowest phenotypically active concentration for each of the following compounds?
1. O=C(CCCCCN1C(=O)c2cccc3cccc(c23)C1=O)NO
2. COc1c(Nc2cc(C)[nH]n2)nc(Sc2ccc(S(=O)(=O)Cc3cccc([N+](=O)[O-])c3F)cc2F)nc1N1CCOCC1
3. Cc1cnc(NC(=O)Nc2cc(Br)c(C)cc2OC[C@@H]2CNCCO2)cn1
4. N#Cc1c(NC(=O)c2cccc3ccccc23)sc2c1CCCC2
5. N#CC[C@@H](C1CCCC1)n1cc(-c2ncnc3[nH]ccc23)cn1 [ruxolitinib-(S)]
6. Nc1ccc(-c2cccc3c(=O)cc(N4CCOCC4)oc23)cc1

1 µM
3 µM
1 µM
≤ 0.3 µM
3 µM
9 µM

====

system: WPMY1-GM130-SQSTM1; experiment: phenotypically active (imaging signature differs from DMSO and reproducible) at any of 0.3-9 uM (binary (1 = active, 0 = inactive)); higher = active; details: treatment time: 24 h
In this exercise, the only acceptable responses are true for active, false for inactive

{"MOLECULE": "C[C@@H](Oc1cc(-c2cnn(C3CCNCC3)c2)cnc1N)c1c(Cl)ccc(F)c1Cl [Crizotinib]", "ASSIGNED CATEGORY": "true"}

Name the outcome recorded for Cc1[nH]c2ccccc2c1CCNC(=O)c1ccccc1F in the assay. false

Dear colleague, could you share the recorded outcome for CCN[C@H]1C[C@H](C)S(=O)(=O)c2sc(S(N)(=O)=O)cc21 [dorzolamide] when you have a moment? false

====

test system: WPMY1-TP53BP1-CLTA; assay: lowest phenotypically active concentration; higher = less potent; details: treatment time: 24 h
MEASURED PROPERTY: lowest phenotypically active concentration

Previously resolved entries follow.
{"GIVEN SMILES": "CCN1CCN(c2cc(-c3ccc(F)cc3)c3c(n2)CCCCCC3)CC1", "RESULT": "9 µM"}
{"GIVEN SMILES": "O=C(O)c1ccc(Nc2ncc3c(n2)-c2ccc(Cl)cc2C(c2c(F)cccc2F)=NC3)cc1", "RESULT": "≤ 0.3 µM"}
{"GIVEN SMILES": "NS(=O)(=O)c1nn2cc(-c3ccccc3)nc2s1", "RESULT": "9 µM"}
{"GIVEN SMILES": "Nc1ccc(-c2cccc3c(=O)cc(N4CCOCC4)oc23)cc1", "RESULT": "9 µM"}
{"GIVEN SMILES": "O=C(O)C[C@H](O)C[C@H](O)/C=C/c1c(C2CC2)nc2ccccc2c1-c1ccc(F)cc1", "RESULT": "1 µM"}

For each of the molecules below, note its lowest phenotypically active concentration.
1. C=C1CN(Cc2ccc(C(=O)Nc3ccccc3N)cc2)C(=O)c2ccccc21
2. O=C(CCCCCN1C(=O)c2cccc3cccc(c23)C1=O)NO
3. Cn1cc(C2=C(c3ccc(Cl)cc3Cl)C(=O)NC2=O)c2ccccc21

["≤ 0.3 µM", "1 µM", "≤ 0.3 µM"]
